assay: in vivo; conditions: SD, rat, iv, 5 mg/kg
Numbered stars: 1 amine (or outer) side, 2 acyl side, 3 side chain; on linkers, the order of the positions; unused ones are H or OH. Bridge positions count the residues as written; N and C are the ends. Square brackets hold non-standard residues; d marks the D form. Peptide text beside a SMILES is read from it. * marks the point of attachment. Orn(4R-OH,5R-OCH2CH2NMe3+) = C[N+](C)(C)CCO[C@@H](N[*:3])[C@H](O)C[C@H](N[*:1])C(=O)[*:2]; hTyr(3S-OH,4S-OH) = N[C@H](C(=O)O)[C@H](O)[C@@H](O)c1ccc(O)cc1; X1 = CCCCCOc1cc(F)c(C#Cc2ccc3cc(C(=O)*)ccc3c2)cc1F; Pro(3S-OH,4S-Me) = C[C@H]1CN[C@H](C(=O)O)[C@H]1O; Hyp = O=C(O)[C@@H]1C[C@@H](O)CN1
Attribute Measured: half-life (h)
Answers are plain numbers, in h.

QUERY: Using the record for CCCCCOc1cc(F)c(C#Cc2ccc3cc(C(=O)N[C@H]4C[C@@H](O)[C@@H](OCC[N+](C)(C)C)NC(=O)[C@@H]5[C@@H](O)[C@@H](C)CN5C(=O)[C@H]([C@@H](C)O)NC(=O)[C@H]([C@H](O)[C@@H](O)c5ccc(O)cc5)NC(=O)[C@@H]5C[C@@H](O)CN5C(=O)[C@H]([C@@H](C)O)NC4=O)ccc3c2)cc1F [Example 16] (X1-[Orn(4R-OH,5R-OCH2CH2NMe3+)]T[Hyp][hTyr(3S-OH,4S-OH)]T[Pro(3S-OH,4S-Me)]; lactam 1-C) , report its half-life.
RESULT: 34.8
